Sourced from patent US20240392024A1

Biological target: T1, recombinant cynomolgus monkey TNFR2 (Cyno. TNFR2) (Sino Biological, 90102-C021) (cynomolgus monkey, UniProt A0A2K5VET2 132-366)
T1 sequence: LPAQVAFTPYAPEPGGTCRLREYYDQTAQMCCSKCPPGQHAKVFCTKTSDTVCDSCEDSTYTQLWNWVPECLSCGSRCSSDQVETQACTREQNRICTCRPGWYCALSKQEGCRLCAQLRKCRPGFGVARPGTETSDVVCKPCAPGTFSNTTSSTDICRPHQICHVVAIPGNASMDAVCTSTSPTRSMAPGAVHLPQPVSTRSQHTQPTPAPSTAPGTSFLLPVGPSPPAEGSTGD
Test: ELISA, plate coated with recombinant cynomolgus monkey TNFR2
pEC50: −log10 of the molar value.

# binder, pEC50
records = [
    ("anti-human TNFR2 mouse monoclonal antibody 29A1 (antibody, V domains shown) VH: QVQLQQSGAEVVRPGASVTLSCKASGYTFSDYEMHWVKQTPVHGLEWIGAIDPETGDTAYNQKFKDKARVTADKSSSTAYMELRSLTSEDSAVYYCTRDIHYYGSSLSYFDYWGQGTTLTVSS VL: DIVMTQSQKFMSTSVGDRVSVTCKASQNVGTNVAWYQQKPGQSPKVMIYSASYRYSGAPDRFTGSGSGTDFTLTVNNVQSEDLAEYFCQQYKTYPYTFGGGTKLEIE", 9.42),
    ("anti-human TNFR2 mouse monoclonal antibody 27F6 (antibody, V domains shown) VH: EVQLQQSGTVLARPGASVKMSCKTSGYTFTSYWMHWVKQRPGQGLEWIGTIYPGNSDTSYNQKFKGKAKLTAVTSASTAYMELNSLTNEDSAVFYCTRENLLLRSYFFDYWGQGTTLTVSS VL: DIVMTQSPASLAVSLGQRATISCKASQSVDYDGDSYLNWYQQKPGQPPKLLIYAASNLPSGIPARFSGSGSGTDFTLNIHPVEEEDAATYYCQQSNEDPRTFGGGTKLEIK", 9.30),
    ("anti-human TNFR2 mouse monoclonal antibody 16D2 (antibody, V domains shown) VH: EVQLQQSEPELVKPGASVKIPCKASGYTFTDYNMDWVKQSHGKSLEWIGDINPNNGVTIYNQKFKGKATLTVDKSSSTAYMELRSLTSEDTAVYYCVILEYFDYWGQGTTLTVSS VL: DIVMTQSTSSMSVSLGDTVSITCHASQGISSNIGWLQQKPGKSFKGLIYHGTKLEDGVPSRFSGSGSGADYSLTISSLESEDFADYYCVQYAQFPRTFGGGTKLEIK", 9.61),
    ("anti-human TNFR2 mouse monoclonal antibody 7F2 (antibody, V domains shown) VH: QVTLKESGPGILQPSQTLSLTCSFSGFSLNTFGLGVGWIRQPSGKGLEWLTHIWWNDDKYYNPALKSRLTISRDTSENLVFLKIANVDTADTATYYCARIEGLRRFDYWGQGTTLTVSS VL: DIQMTQSPSSLSASLGGKVTITCKTSQDINKFIAWYQHKPGKGPRLLIHYTSTLQPGIPSRFSGSGSGRDYSFSISDLEPEDIATYYCLQYANLWAFGGGTKLEIK", 9.10),
    ("anti-human TNFR2 mouse monoclonal antibody 12E12 (antibody, V domains shown) VH: EVQLQQSGAELVKPGASVKLSCTVSGFNIKDFYIHWVKQRPEQGLEWIGRVDPEDGNTEYAPNFQDRATMTTDTSSNTAYLQLSSLTSVDTAVYYCSTWDGFSYFDYWGLGTTLTVSS VL: QAVVTQESALTTSPGETVTLTCRSSTGPVTTNNYANWVQEKPDHLFTGLIGGTNDRAPGVPARFSGSLIGDKTALTITGTQTEDEAVYFCALWYRNHWVFGGGTKLTVL", 9.03),
]
